Taken from patent US12522597B2.

Test system: mHTT protein
Assay: mHTT protein assay (2B7-MW1, Mesoscale Discovery)
Type: cell-based, human
Conditions: GM04724 (CAG 70/20) Huntington's disease patient lymphoblast cells, 48 hours, 2B7-MW1 MSD; read-out: HTT Potency - Protein EC50 mHTT (average)
pEC50: −log10 of the molar value.
METRIC: pEC50

Your task in this section: give pEC50 for each listed record.
1. Cn1ccc2cc(-c3ccc(O[C@H]4CC5CCC[C@@H](N5)[C@H]4F)nn3)c(O)cc2c1=O (single isomer, unassigned)
2. Cn1cnc(-c2ccc(-c3ccc(O[C@H]4C[C@@H]5CCC[C@@H](N5)[C@H]4F)nn3)c(O)c2)cc1=O (single isomer, unassigned)
3. Cn1cc(-c2ccc(-c3ccc(O[C@@H]4C[C@H]5CC[C@H](N5)[C@@H]4F)nn3)c(O)c2)cn1 (single isomer, unassigned)
4. Cc1nnc(-c2ccc(-c3ccc(O[C@@H]4C[C@H]5CCC[C@H](N5)[C@@H]4F)nn3)c(O)c2)s1 (single isomer, unassigned)
5. CN(C)C(=O)c1cc2cc(O)c(-c3ccc(O[C@H]4C[C@]5(C)CCC[C@@](C)(N5)[C@H]4F)nn3)cc2o1 (single isomer, unassigned)
6. Cc1nocc1-c1ccc(-c2ccc(O[C@H]3C[C@@H]4CCC[C@@H](N4)[C@H]3F)nn2)c(O)c1 (single isomer, unassigned) [72-ENT1]
7. Cn1ccc(-c2ccc(-c3ccc(O[C@@H]4C[C@H]5CCC[C@H](N5)[C@@H]4F)nn3)c(O)c2)nc1=O (single isomer, unassigned)

["7.00 to 7.29", "6.30 to 7.00", "7.30 to 7.80", "6.30 to 7.00", "5.00 to 6.30", "6.30 to 7.00", "6.30 to 7.00"]

---

Tested on: MDR1
Assay: MDCK-MDR1 permeability assay (BBB penetration potential)
Type: in vitro ADME
Conditions: dog, MDCK-MDR1, pH 7.4, MDCK-MDR1: Papp B-A
METRIC: Papp B→A at 120 min, 5 μM (×10⁻⁶ cm/s)
Answers are plain numbers, in ×10⁻⁶ cm/s.

Oc1cc(-c2nnco2)ccc1-c1ccc(O[C@@H]2C[C@H]3CCC[C@H](N3)[C@@H]2F)nn1 (single isomer, unassigned) [117-ENT1] :: 47.5
Oc1cc(-c2nnco2)ccc1-c1ccc(O[C@H]2C[C@@H]3CCC[C@@H](N3)[C@H]2F)nn1 (single isomer, unassigned) [117-ENT2] :: 37.9

Your task in this section: give Papp B→A at 120 min, 5 μM for each listed record.
1. Cn1ccc(=O)c2cc(-c3ccc(O[C@H]4C[C@]5(C)CCC[C@@](C)(N5)[C@H]4F)nn3)c(O)cc21 (single isomer, unassigned) [131-ENT1]
2. Cn1ccc2cc(O)c(-c3ccc(O[C@@H]4C[C@H]5CC[C@H](N5)[C@@H]4F)nn3)cc2c1=O (single isomer, unassigned) [129-ENT2]
3. Cc1cncc(-c2ccc(-c3ccc(O[C@@H]4C[C@H]5CCC[C@H](N5)[C@@H]4F)nn3)c(O)c2)c1 (single isomer, unassigned) [89-ENT1]
4. Cn1cc(-c2cc(O)c(-c3ccc(O[C@H]4C[C@@H]5CCC[C@@H](N5)[C@H]4F)nn3)cn2)cn1 (single isomer, unassigned) [64-ENT2]

49.5
45.7
33.8
10.7

---

Test system: mHTT protein
Assay: mHTT protein assay (2B7-MW1, Mesoscale Discovery)
Assay type: cell-based, human
Details: GM04724 (CAG 70/20) Huntington's disease patient lymphoblast cells, 48 hours, 2B7-MW1 MSD; read-out: HTT Potency - Protein EC50 mHTT (average)
pEC50: −log10 of the molar value.
METRIC: pEC50

Here is how some compounds turned out for pEC50.
Cc1ccc(-c2ccc(-c3ccc(O[C@H]4C[C@@H]5CCC[C@@H](N5)[C@H]4F)nn3)c(O)c2)cn1 (single isomer, unassigned) :: 6.30 to 7.00
Cn1cnc(-c2ccc(-c3ccc(O[C@@H]4C[C@@]5(C)CCC[C@](C)(N5)[C@@H]4F)nn3)c(O)c2)cc1=O (single isomer, unassigned) :: 7.82 to 11.00
Cn1ccc2cc(O)c(-c3ccc(O[C@H]4C[C@@H]5CC[C@@H](N5)[C@H]4F)nn3)cc2c1=O (single isomer, unassigned) :: 7.30 to 7.80
O=c1cc(-c2cc(O)c(-c3ccc(O[C@H]4C[C@@H]5CCC[C@@H](N5)[C@H]4F)nn3)cc2F)cc[nH]1 (single isomer, unassigned) :: 6.30 to 7.00
Oc1cc(-c2ccc3cncn3c2)ccc1-c1ccc(O[C@@H]2C[C@H]3CCC[C@H](N3)[C@@H]2F)nn1 (single isomer, unassigned) :: 6.30 to 7.00

Your task in this section: give pEC50 for each listed record.
1. CNC(=O)c1ccc2cc(-c3ccc(O[C@@H]4C[C@H]5CCC[C@H](N5)[C@@H]4F)nn3)c(O)cc2n1 (single isomer, unassigned)
2. COc1cc(-c2ccc(-c3ccc(O[C@H]4C[C@@H]5CCC[C@@H](N5)[C@H]4F)nn3)c(O)c2)cnn1 (single isomer, unassigned)
3. Cn1ccc(-c2cc(O)c(-c3ccc(O[C@@H]4C[C@H]5CCC[C@H](N5)[C@@H]4F)nn3)cc2F)cc1=O (single isomer, unassigned)

1: 7.82 to 11.00; 2: 7.82 to 11.00; 3: 7.82 to 11.00

Your task in this section: give pEC50 for each listed record.
1. Oc1cc(-c2ccc3nncn3c2)ccc1-c1ccc(O[C@@H]2C[C@H]3CCC[C@H](N3)[C@@H]2F)nn1 (single isomer, unassigned)
2. Oc1cc(-c2nnco2)c(F)cc1-c1ccc(O[C@@H]2C[C@H]3CCC[C@H](N3)[C@@H]2F)nn1 (single isomer, unassigned)
3. Cc1cc(-c2ccc(-c3ccc(O[C@@H]4C[C@H]5CCC[C@H](N5)[C@@H]4F)nn3)c(O)c2)cs1 (single isomer, unassigned)
4. Cn1ccc2cc(-c3ccc(O[C@H]4C[C@]5(C)CC[C@@](C)(N5)[C@H]4F)nn3)c(O)cc2c1=O (single isomer, unassigned)

["6.30 to 7.00", "7.00 to 7.29", "6.30 to 7.00", "7.00 to 7.29"]

---

Tested on: MDR1-MDCK cell monolayers
Assay: MDCK-MDR1 permeability assay (BBB penetration potential)
Assay type: in vitro ADME
Conditions: dog, MDCK-MDR1, 120 min, 5 μM, pH 7.4
METRIC: MDCK-MDR1: % Recov B-A
Reply with the number, then its unit.

Oc1cc(-c2nnco2)ccc1-c1ccc(O[C@H]2C[C@@H]3CCC[C@@H](N3)[C@H]2F)nn1 (single isomer, unassigned) [117-ENT2] :: 93%

Your task in this section: give MDCK-MDR1: % Recov B-A for each listed record.
1. Oc1cc(-c2cc[nH]n2)ccc1-c1ccc(O[C@H]2C[C@@H]3CCC[C@@H](N3)[C@H]2F)nn1 (single isomer, unassigned) [66-ENT2]
2. Oc1cc(-c2ccccn2)ccc1-c1ccc(O[C@H]2C[C@@H]3CCC[C@@H](N3)[C@H]2F)nn1 (single isomer, unassigned) [77-ENT2]
3. C[C@]12CCC[C@](C)(N1)[C@H](F)[C@H](Oc1ccc(-c3ccc(C#N)cc3O)nn1)C2 (single isomer, unassigned) [145-ENT1]
4. Oc1cc(-n2ccnc2)ccc1-c1ccc(O[C@H]2C[C@@H]3CC[C@@H](N3)[C@H]2F)nn1 (single isomer, unassigned) [36-ENT2]
5. Cn1cnc2cc(O)c(-c3ccc(O[C@@H]4C[C@@]5(C)CCC[C@](C)(N5)[C@@H]4F)nn3)cc2c1=O (single isomer, unassigned) [133-ENT2]

1: 78%; 2: 79%; 3: 87%; 4: 73%; 5: 90%

---

Tested on: MDR1-MDCK cell monolayers
Assay: MDCK-MDR1 permeability assay (BBB penetration potential)
Format: in vitro ADME
Details: dog, MDCK-MDR1, 120 min, 5 μM, pH 7.4
Each entry gets 0 if its MDCK-MDR1: % Recov B-A stays under 90%, and 1 if its MDCK-MDR1: % Recov B-A is 90% or above.

Oc1cc(-n2ncc3ccccc32)ccc1-c1ccc(O[C@H]2C[C@@H]3CC[C@@H](N3)[C@H]2F)nn1 (single isomer, unassigned) :: 0
Cc1ccc(-c2ccc(-c3ccc(O[C@@H]4C[C@H]5CCC[C@H](N5)[C@@H]4F)nn3)c(O)c2)o1 (single isomer, unassigned) :: 0
Oc1cc(-c2cnn3ccccc23)ccc1-c1ccc(O[C@@H]2C[C@H]3CCC[C@H](N3)[C@@H]2F)nn1 (single isomer, unassigned) :: 0
Cn1ccc(=O)c2cc(O)c(-c3ccc(O[C@H]4C[C@]5(C)CCC[C@@](C)(N5)[C@H]4F)nn3)cc21 (single isomer, unassigned) [132-ENT1] :: 1

Dear colleague, could you confirm whether Cn1cc(-c2cc(O)c(-c3ccc(O[C@H]4C[C@@H]5CCC(N5)[C@H]4F)nn3)cn2)cn1 (single isomer, unassigned) has MDCK-MDR1: % Recov B-A at or above 90%?
1
